Tested on: A204
Protocol Details: relative viability vs DMSO control (72 h) (fraction); higher = more viable cells
Study Conditions: 1.111 µM
Rule: relative viability below 0.7 gives condition met, anything at or above gives condition not met.

Below 0.7 on relative viability? Entry COc1cc2ncnc(Nc3cccc(Cl)c3F)c2cc1OC(=O)N1CCN(C)C[C@H]1C [AZD-3759]
condition not met

Does the reported relative viability of C[C@@H]1COC(Nc2ccc3ncnc(Nc4ccc(OCc5nccs5)c(Cl)c4)c3c2)=N1 [Varlitinib] stay below 0.7?
condition not met

In plain terms, does Cc1cn(-c2cc(NC(=O)c3ccc(C)c(Nc4nccc(-c5cccnc5)n4)c3)cc(C(F)(F)F)c2)cn1 [Nilotinib] come in under 0.7 for relative viability?
condition met

Item COc1cc2ncnc(Nc3ccc(F)c(Cl)c3)c2cc1NC(=O)/C=C/CN1CCCCC1 [Dacomitinib] : relative viability beneath 0.7, strictly?
condition not met

I'd appreciate it if you could check whether CO[C@@H]1[C@H](N(C)C(=O)c2ccccc2)C[C@H]2O[C@]1(C)n1c3ccccc3c3c4c(c5c6ccccc6n2c5c31)C(=O)NC4 [Midostaurin] has relative viability smaller than 0.7.
condition met

Consider CN(C)C[C@@H]1CCn2cc(c3ccccc32)C2=C(C(=O)NC2=O)c2cn(c3ccccc23)CCO1 [Ruboxistaurin] . Does its relative viability lie strictly below 0.7?
condition not met

* * *

System: RD
Protocol Details: relative viability vs DMSO control (72 h) (fraction); higher = more viable cells
Study Conditions: 0.00051 µM
Measured Metric: relative viability
Field format: numeric only.

If you can, please state the reported relative viability value of `COc1cc2nccc(Oc3ccc(NC(=O)NC4CC4)c(Cl)c3)c2cc1C(N)=O` .
0.993

Request the reported relative viability associated with `COc1cc2ncnc(Nc3ccc(F)c(Cl)c3)c2cc1NC(=O)/C=C/CN1CCCCC1`
1.09

# get_value(readout='relative viability', item= `COc1cc2c(Oc3ccc4[nH]c(C)cc4c3F)ccnc2cc1OCC1(N)CC1` )
1.06

I'd like to know its relative viability. The compound in question is `CO[C@H]1C[C@@H]2CC[C@@H](C)[C@@](O)(O2)C(=O)C(=O)N2CCCC[C@H]2C(=O)O[C@H]([C@H](C)C[C@@H]2CC[C@@H](O)[C@H](OC)C2)CC(=O)[C@H](C)/C=C(\C)[C@@H](O)[C@@H](OC)C(=O)[C@H](C)C[C@H](C)/C=C/C=C/C=C/1C`
0.87

relative viability for `Cc1ccc(NC(=O)c2ccc(CN3CCN(C)CC3)cc2)cc1Nc1nccc(-c2cccnc2)n1` ?
0.974

Name the reported relative viability value associated with the compound `CCCS(=O)(=O)N[C@H]1C[C@@H](N(C)c2ncnc3[nH]ccc23)C1`
1.12

Param item = `COc1cc(Nc2c(C#N)cnc3cc(OCCCN4CCN(C)CC4)c(OC)cc23)c(Cl)cc1Cl` ; retrieve measured relative viability.
1.11

Recorded relative viability of `COc1cc2ncnc(Nc3cccc(Cl)c3F)c2cc1OC(=O)N1CCN(C)C[C@H]1C` , please.
1.1

Recorded relative viability of `Cc1cccc(-c2[nH]c(CNc3ccccc3F)nc2-c2ccc3ncnn3c2)n1` , please.
1.06

* * *

Test system: G401
Protocol Details: relative viability vs DMSO control (72 h) (fraction); higher = more viable cells
Study Conditions: 0.00152 µM
Provide the recorded relative viability for the entries that follow.
The response must contain the number and no unit.

Fill blank: measured relative viability of the compound `CCCCCCCCCCCCCCCCCCOP(=O)([O-])OC1CC[N+](C)(C)CC1` is ____.
1.07

Quick one: relative viability of `NC(=O)c1cccc2cn(-c3ccc([C@@H]4CCCNC4)cc3)nc12` ?
1.01

Please report the recorded relative viability for `Cc1nc(Nc2ncc(C(=O)Nc3c(C)cccc3Cl)s2)cc(N2CCN(CCO)CC2)n1` .
1.02

Find the recorded relative viability belonging to `C=CC(=O)Nc1cccc(Nc2nc(Nc3ccc(N4CCN(C(C)=O)CC4)cc3OC)ncc2C(F)(F)F)c1` and report it.
1.04

What does the record list as relative viability for `COc1cc2nccc(Oc3ccc(NC(=O)NC4CC4)c(Cl)c3)c2cc1C(N)=O` ?
1.01

Which relative viability value is on record for `C1=N/C2=N/c3ccc(OCCN4CCCC4)c(c3)COC/C=C/COCc3cccc(c3)C(=C1)N2` ?
1.02

Requested read-out: relative viability. Entry: `CO[C@H]1C[C@@H]2CC[C@@H](C)[C@@](O)(O2)C(=O)C(=O)N2CCCC[C@H]2C(=O)O[C@H]([C@H](C)C[C@@H]2CC[C@@H](O)[C@H](OC)C2)CC(=O)[C@H](C)/C=C(\C)[C@@H](O)[C@@H](OC)C(=O)[C@H](C)C[C@H](C)/C=C/C=C/C=C/1C`
0.815
